- System: Madin–Darby canine kidney (MDCK) cells
- TEST CONDITIONS: dog
ENDPOINT: MTT assay LD50 (µmol/mL)
Numeric answer only, unit µmol/mL assumed.

// MTT assay LD50 lookup, key: `N#Cc1nnc2c(C#N)c(NC(=O)c3ccccc3)nn2c1N` 200

Subsequent entry: `CCSC(NC(=O)c1ccccc1)=C(C#N)C#N` 480

Subsequent entry: N#Cc1c(N)nc2c(C#N)c(NC(=O)c3ccccc3)nn2c1-c1ccc(Cl)cc1 [10c] 120

Subsequent entry: `N#Cc1c(NC(=O)c2ccccc2)nn2c3c(cnc12)CCC3` 170

Subsequent entry: `CCOc1n[nH]c(-c2ccccc2)n1` 230

Subsequent entry: COc1ccc(-c2c(C#N)c(N)nc3c(C#N)c(NC(=O)c4ccccc4)nn23)cc1 [10b] 140

Subsequent entry: `N#CC(C#N)=C(NC(=O)c1ccccc1)SCc1ccccc1` 200

Subsequent entry: CC(=O)OC[C@H]1O[C@@H](SC(NC(=O)c2ccccc2)=C(C#N)C#N)[C@H](OC(C)=O)[C@H](OC(C)=O)[C@H]1OC(C)=O [21a] 90

Subsequent entry: Cc1cc(O)n2nc(NC(=O)c3ccccc3)c(C#N)c2n1 [12b] 190

Subsequent entry: CCOC(=O)/C(C#N)=C(\NC(=O)c1ccccc1)S[C@@H]1O[C@H](COC(C)=O)[C@H](OC(C)=O)[C@@H](OC(C)=O)[C@H]1OC(C)=O [21b] 210

Subsequent entry: `N#Cc1c(NC(=O)c2ccccc2)n[nH]c1N` 30

Subsequent entry: Cc1cc(C)n2nc(NC(=O)c3ccccc3)c(C#N)c2n1 [12a] 210

Subsequent entry: `CCOC(=O)/C(C#N)=C(\NC(=O)c1ccccc1)SC` 130

Subsequent entry: `CSC(NC(=O)c1ccccc1)=C(C#N)C#N` 200

Subsequent entry: `N#Cc1c(NC(=O)c2ccccc2)nn2c3c(cnc12)CCCC3` 210

Subsequent entry: `CCOc1c(C#N)nnc2c(C#N)c(NC(=O)c3ccccc3)nn12` 100

###

- Test system: H5N1 influenza virus strain A/Egypt/M7217B/2013
- PROTOCOL SUMMARY: microbe, parasite or virus in culture
- Assay type: cell-based, influenza A virus (subtype H5N1)
- TEST CONDITIONS: MDCK, read-out: inhibition % (plaque reduction assay)
ENDPOINT: inhibition at 125 µM (%)
Numeric answer only, unit % assumed.

// inhibition at 125 µM lookup, key: CCOc1c(C#N)nnc2c(C#N)c(NC(=O)c3ccccc3)nn12 [6b] 50

Subsequent entry: Cc1cc(C)n2nc(NC(=O)c3ccccc3)c(C#N)c2n1 [12a] 23.3

Subsequent entry: CCOC(=O)/C(C#N)=C(\NC(=O)c1ccccc1)SC [compound 14] 16.7

Subsequent entry: CCOC(=O)/C(C#N)=C(\NC(=O)c1ccccc1)S[C@@H]1O[C@H](COC(C)=O)[C@H](OC(C)=O)[C@@H](OC(C)=O)[C@H]1OC(C)=O [21b] 41.7

Subsequent entry: CSC(NC(=O)c1ccccc1)=C(C#N)C#N [3a] 16.7

###

- Test system: H5N1 influenza virus strain A/Egypt/M7217B/2013
- PROTOCOL SUMMARY: microbe, parasite or virus in culture
- Assay type: cell-based, influenza A virus (subtype H5N1)
Could you please report measured viral count (plaque reduction assay) for the items listed next?

// viral count (plaque reduction assay) lookup, key: `N#CC(C#N)=C(NC(=O)c1ccccc1)SCc1ccccc1` 2.8 × 10^6 2.1 × 10^6 PFU/mL

Subsequent entry: Cc1cc(O)n2nc(NC(=O)c3ccccc3)c(C#N)c2n1 [12b] 5.0 × 10^6 4.0 × 10^6 PFU/mL

Subsequent entry: CC(=O)N[C@H]1[C@H]([C@H](O)[C@H](O)CO)OC(C(=O)O)=C[C@@H]1N=C(N)N [zanamivir, reference compound] 5.0 × 10^4 1.1 × 10^4 PFU/mL

Subsequent entry: `N#Cc1c(NC(=O)c2ccccc2)n[nH]c1N` 2.0 × 10^6 1.4 × 10^6 PFU/mL

Subsequent entry: `CCOc1c(C#N)nnc2c(C#N)c(NC(=O)c3ccccc3)nn12` 3.0 × 10^6 3.2 × 10^6 PFU/mL

Subsequent entry: Cc1cc(C)n2nc(NC(=O)c3ccccc3)c(C#N)c2n1 [12a] 4.6 × 10^6 2.0 × 10^6 PFU/mL

Subsequent entry: CCOC(=O)/C(C#N)=C(\NC(=O)c1ccccc1)S[C@@H]1O[C@H](COC(C)=O)[C@H](OC(C)=O)[C@@H](OC(C)=O)[C@H]1OC(C)=O [21b] 3.5 × 10^6 2.0 × 10^6 PFU/mL

Subsequent entry: `CCOC(=O)/C(C#N)=C(\NC(=O)c1ccccc1)SC` 5.0 × 10^6 5.0 × 10^6 PFU/mL

Subsequent entry: N#Cc1c(N)nc2c(C#N)c(NC(=O)c3ccccc3)nn2c1-c1ccc(Cl)cc1 [10c] 4.0 × 10^6 2.0 × 10^6 PFU/mL

Subsequent entry: `CCOc1n[nH]c(-c2ccccc2)n1` 2.2 × 10^6 2.0 × 10^6 PFU/mL

Subsequent entry: `N#Cc1c(NC(=O)c2ccccc2)nn2c3c(cnc12)CCC3` 4.0 × 10^6 2.5 × 10^6 PFU/mL

Subsequent entry: COc1ccc(-c2c(C#N)c(N)nc3c(C#N)c(NC(=O)c4ccccc4)nn23)cc1 [10b] 1.0 × 10^6 b PFU/mL

Subsequent entry: `CSC(NC(=O)c1ccccc1)=C(C#N)C#N` 5.0 × 10^6 4.0 × 10^6 PFU/mL

Subsequent entry: `N#Cc1nnc2c(C#N)c(NC(=O)c3ccccc3)nn2c1N` 4.0 × 10^6 3.0 × 10^6 PFU/mL

Subsequent entry: CC(=O)OC[C@H]1O[C@@H](SC(NC(=O)c2ccccc2)=C(C#N)C#N)[C@H](OC(C)=O)[C@H](OC(C)=O)[C@H]1OC(C)=O [21a] 2.2 × 10^6 2.0 × 10^6 PFU/mL

Subsequent entry: `CCSC(NC(=O)c1ccccc1)=C(C#N)C#N` 2.2 × 10^6 9.0 × 10^5 PFU/mL
